What follows is a record of IC50 for PIK3CG (human) (UniProt P48736).

Past entries and their recorded results:
> print(dat)
                               given.smiles                      test.system  readout.label       obs.value
1  COc1c(C)cc(C(=O)NC2=Nc3ccccc3C3=NCCN23)cc1C  PIK3CG (human) (UniProt P48736)           IC50       > 2000 nM
2  COc1ccc2c(c1OC)N=C(NC(=O)c1ccc3[nH]cnc3c1)N1CCN=C21  PIK3CG (human) (UniProt P48736)           IC50        ≤ 100 nM
3     O/C(=C\C1=Nc2ccccc2C2=NCCN12)c1ccccn1  PIK3CG (human) (UniProt P48736)           IC50  500 to 2000 nM
4  Cc1nc2ccccn2c1C(=O)NC1=Nc2ccccc2C2=NCCN12  PIK3CG (human) (UniProt P48736)           IC50   100 to 500 nM
5    O=C(NC1=Nc2cc(O)ccc2C2=NCCN12)c1cccnc1  PIK3CG (human) (UniProt P48736)           IC50   100 to 500 nM
6  CCOC(=O)c1cc(C(=O)NC2=Nc3ccccc3C3=NCCN23)cc(C(=O)OCC)c1  PIK3CG (human) (UniProt P48736)           IC50       > 2000 nM
7  COc1cc2c(cc1OC)C1=NCCN1C(NC(=O)c1cncc(O)c1)=N2  PIK3CG (human) (UniProt P48736)           IC50        ≤ 100 nM
8  Cc1cccc2c1N=C(/C=C(\O)c1cccnc1)N1CCN=C21  PIK3CG (human) (UniProt P48736)           IC50   100 to 500 nM

Which IC50 is reported for this molecule? CC(=O)Nc1ccc(/C(O)=C/C2=Nc3cc(N4CCN(C)CC4)ccc3C3=NCCN23)cn1 100 to 500 nM

Any idea what its IC50 is? The molecule is COc1c(OCCO)ccc2c1N=C(/C=C(\O)c1cccnc1)N1CCN=C21 ≤ 100 nM

###

Below, each entry is listed alongside its reported pIC50.
# Test system: UniProt P42338
# Sequence (P42338 whole entry, looked up): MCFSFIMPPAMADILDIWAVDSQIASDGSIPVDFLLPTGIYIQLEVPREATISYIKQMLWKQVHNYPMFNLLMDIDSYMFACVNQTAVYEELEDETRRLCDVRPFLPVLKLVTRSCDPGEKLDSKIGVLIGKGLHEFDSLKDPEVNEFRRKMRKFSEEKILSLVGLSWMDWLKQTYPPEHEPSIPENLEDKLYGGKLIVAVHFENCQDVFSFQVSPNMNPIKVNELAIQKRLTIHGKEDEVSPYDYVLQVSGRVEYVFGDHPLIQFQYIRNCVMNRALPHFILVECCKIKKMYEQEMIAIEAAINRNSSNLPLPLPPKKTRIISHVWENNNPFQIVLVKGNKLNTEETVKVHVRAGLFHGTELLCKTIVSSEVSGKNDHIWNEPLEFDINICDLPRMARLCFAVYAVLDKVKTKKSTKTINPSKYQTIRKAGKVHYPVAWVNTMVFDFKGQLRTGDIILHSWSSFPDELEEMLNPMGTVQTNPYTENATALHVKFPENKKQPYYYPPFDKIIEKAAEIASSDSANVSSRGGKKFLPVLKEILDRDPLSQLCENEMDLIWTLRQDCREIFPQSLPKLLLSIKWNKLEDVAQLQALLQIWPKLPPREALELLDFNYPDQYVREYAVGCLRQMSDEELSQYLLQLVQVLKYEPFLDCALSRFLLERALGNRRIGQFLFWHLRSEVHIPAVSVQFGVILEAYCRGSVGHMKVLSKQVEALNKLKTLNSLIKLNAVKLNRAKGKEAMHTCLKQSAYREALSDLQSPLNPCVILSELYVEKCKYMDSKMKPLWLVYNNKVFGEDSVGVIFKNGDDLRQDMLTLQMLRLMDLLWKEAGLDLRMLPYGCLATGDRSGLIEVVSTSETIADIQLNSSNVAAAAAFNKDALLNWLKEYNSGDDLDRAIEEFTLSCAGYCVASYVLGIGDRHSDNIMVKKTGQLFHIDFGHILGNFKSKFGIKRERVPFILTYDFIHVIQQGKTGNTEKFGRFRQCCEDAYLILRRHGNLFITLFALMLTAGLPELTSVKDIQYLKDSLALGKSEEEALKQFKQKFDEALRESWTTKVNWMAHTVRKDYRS
pIC50: −log10 of the molar value.

Look over these answered cases.
> print(dat)
                               given.smiles  readout.label     obs.value
1  COc1c(OCCCC(=O)O)ccc2c1N=C(/C=C(\O)c1cccnc1)N1CCN=C21          pIC50  6.30 to 7.00
2  COc1cc2c(cc1OC)C1=NCCN1C(/C=C(\O)c1cccnc1)=N2          pIC50  5.70 to 6.30
3       O=C(NC1=Nc2ccccc2C2=NCCN12)c1cccnc1          pIC50  6.30 to 7.00

Report pIC50 for O=C(NC1=Nc2cc(OCCn3cccc3)ccc2C2=NCCN12)c1cccnc1 tested on UniProt P42338. 6.30 to 7.00

###

Parameter IC50, tested on PIK3CG (human) (UniProt P48736), listed per item.
Sequence (P48736 whole entry, looked up): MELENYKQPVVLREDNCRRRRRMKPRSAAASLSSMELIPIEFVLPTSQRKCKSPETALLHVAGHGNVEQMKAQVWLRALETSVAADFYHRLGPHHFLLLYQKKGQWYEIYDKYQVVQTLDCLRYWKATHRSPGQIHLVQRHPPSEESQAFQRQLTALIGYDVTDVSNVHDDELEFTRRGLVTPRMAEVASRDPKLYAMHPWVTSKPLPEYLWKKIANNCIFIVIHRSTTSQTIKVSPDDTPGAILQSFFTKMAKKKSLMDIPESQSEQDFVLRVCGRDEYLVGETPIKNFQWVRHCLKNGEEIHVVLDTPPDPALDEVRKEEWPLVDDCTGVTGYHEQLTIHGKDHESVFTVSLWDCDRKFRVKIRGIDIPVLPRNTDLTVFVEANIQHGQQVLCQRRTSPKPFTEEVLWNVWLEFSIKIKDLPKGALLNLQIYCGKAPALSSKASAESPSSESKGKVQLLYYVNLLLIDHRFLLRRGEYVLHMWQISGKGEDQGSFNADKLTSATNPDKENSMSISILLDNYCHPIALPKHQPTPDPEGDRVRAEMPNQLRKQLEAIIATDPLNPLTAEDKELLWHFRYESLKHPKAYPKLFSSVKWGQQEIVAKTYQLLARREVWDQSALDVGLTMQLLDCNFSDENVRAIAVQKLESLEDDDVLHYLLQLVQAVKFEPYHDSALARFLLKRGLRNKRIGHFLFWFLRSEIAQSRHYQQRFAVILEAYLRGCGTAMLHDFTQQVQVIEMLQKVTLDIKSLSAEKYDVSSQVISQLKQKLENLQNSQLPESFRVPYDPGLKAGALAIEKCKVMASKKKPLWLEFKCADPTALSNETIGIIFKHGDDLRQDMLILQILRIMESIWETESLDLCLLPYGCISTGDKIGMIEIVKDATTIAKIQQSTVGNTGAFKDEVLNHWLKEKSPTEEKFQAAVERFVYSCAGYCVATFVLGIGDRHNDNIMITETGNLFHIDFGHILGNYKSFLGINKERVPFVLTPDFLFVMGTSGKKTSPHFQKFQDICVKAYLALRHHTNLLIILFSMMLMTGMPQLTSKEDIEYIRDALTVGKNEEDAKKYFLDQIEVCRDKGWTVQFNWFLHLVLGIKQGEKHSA

Examples with their reported IC50 follow.
> print(dat)
                               given.smiles                      test.system      obs.value
1  CN(C)c1cccc(C(=O)NC2=Nc3ccccc3C3=NCCN23)c1  PIK3CG (human) (UniProt P48736)      > 2000 nM
2  O/C(=C\C1=Nc2ccc(Cl)cc2C2=NCCN12)c1cccnc1  PIK3CG (human) (UniProt P48736)  100 to 500 nM
3  O=C(NC1=Nc2ccccc2C2=NCCN12)c1ccc(-n2cccn2)cc1  PIK3CG (human) (UniProt P48736)      > 2000 nM
4  O/C(=C\C1=Nc2ccccc2C2=NCCN12)c1csc2ccccc12  PIK3CG (human) (UniProt P48736)      > 2000 nM
5   COc1cncc(C(=O)NC2=Nc3ccccc3C3=NCCN23)c1  PIK3CG (human) (UniProt P48736)  100 to 500 nM
6  COc1cc2c(cc1OC)C1=NCCN1C(/C=C(\O)c1cccs1)=N2  PIK3CG (human) (UniProt P48736)  100 to 500 nM
7  Cc1ccc2c(c1)N=C(NC(=O)c1cccnc1)N1CCN=C21  PIK3CG (human) (UniProt P48736)       ≤ 100 nM
8  O/C(=C\C1=Nc2cc(CN3CCOCC3)ccc2C2=NCCN12)c1cccnc1  PIK3CG (human) (UniProt P48736)  100 to 500 nM

Form: Entry = COc1ccc2c(c1OC)N=C(NC(=O)c1cnc3[nH]cnc3c1)N1CCN=C21 | System = PIK3CG (human) (UniProt P48736) | IC50 = ____ ≤ 100 nM

// fetch PIK3CG (human) (UniProt P48736) IC50 for O=C(NC1=Nc2cc(Cl)ccc2C2=NCCN12)c1cccnc1 100 to 500 nM

Missing value: IC50, PIK3CG (human) (UniProt P48736), entry COc1cccc2c1N=C(NC(=O)c1ccc3[nH]cnc3c1)N1CCN=C21 . Fill in? ≤ 100 nM

###

# pIC50 per entry for PIK3CG (human) (UniProt P48736)
pIC50: −log10 of the molar value.

Past entries and their recorded results:
> print(dat)
                               given.smiles  readout.label     obs.value
1   O=C(NC1=Nc2ccc(Br)cc2C2=NCCN12)c1cccnc1          pIC50  6.30 to 7.00
2  COc1ccc2c(c1)C1=NCCN1C(/C=C(\O)c1cccnc1)=N2          pIC50  6.30 to 7.00
3  O/C(=C\C1=Nc2cc(Cl)ccc2C2=NCCN12)c1cccnc1          pIC50  6.30 to 7.00
4        O=C(NC1=Nc2ccccc2C2=NCCN12)c1ccco1          pIC50  5.70 to 6.30
5    Cc1ccc(C(=O)NC2=Nc3ccccc3C3=NCCN23)cn1          pIC50        ≥ 7.00
6  COc1cccc2c1N=C(NC(=O)c1cc3cccnc3nc1C(F)(F)F)N1CCN=C21          pIC50        ≥ 7.00

Now take the following compound into account.
Tell me reported pIC50 for O/C(=C\C1=Nc2c(CN3CCOCC3)cccc2C2=NCCN12)c1cccnc1 , tested with PIK3CG (human) (UniProt P48736). 6.30 to 7.00

###

What follows is a collection of IC50 values obtained with PIK3CG (human).

Below: 3 compounds and their reported IC50.
> print(dat)
                               given.smiles  obs.value
1  O=C(NC1=Nc2ccccc2C2=NCCN12)c1cnc2[nH]cnc2c1   ≤ 0.1 µM
2  Cc1cccc2c1N=C(NC(=O)c1ccc3[nH]cnc3c1)N1CCN=C21   ≤ 0.1 µM
3   CSc1ccc(C(=O)NC2=Nc3ccccc3C3=NCCN23)cc1     > 2 µM

Missing value: IC50, PIK3CG (human), entry Cn1cccc1C(=O)NC1=Nc2ccccc2C2=NCCN12 . Fill in? 0.5 to 2 µM

Request: IC50, test system PIK3CG (human), entry COc1ccc2c(c1OCCN1CCOCC1)N=C(/C=C(\O)c1cccnc1)N1CCN=C21 ≤ 0.1 µM

Recorded IC50 for O/C(=C\C1=Nc2cc(N3CCOCC3)ccc2C2=NCCN12)c1cccnc1 with PIK3CG (human), please? 0.1 to 0.5 µM

###

pIC50: −log10 of the molar value.
# pIC50 measurements, system: PIK3CG (human) (UniProt P48736)

> print(dat)
                                   compound     obs.value
1  CC(=O)Nc1ccc(/C(O)=C/C2=Nc3cc(CN4CCOCC4)ccc3C3=NCCN23)cn1  6.30 to 7.00

Request - read-out pIC50 | tested on PIK3CG (human) (UniProt P48736) | compound O/C(=C\C1=Nc2cc(N3CCOCC3)ccc2C2=NCCN12)c1cncc(O)c1 ≥ 7.00

Recorded pIC50 for COc1cc2c(cc1OC)C1=NCCN1C(NC(=O)c1ccc(NC(C)=O)nc1)=N2 with PIK3CG (human) (UniProt P48736), please? 6.30 to 7.00

Recall the recorded pIC50 for CC(=O)Nc1ccc(/C(O)=C/C2=Nc3c(C)cccc3C3=NCCN23)cn1 with PIK3CG (human) (UniProt P48736) and state it. ≥ 7.00

Test system PIK3CG (human) (UniProt P48736); read-out pIC50; what value for Cc1nc(N)ccc1C(=O)NC1=Nc2ccccc2C2=NCCN12 ? 6.30 to 7.00

# returns recorded pIC50 (system: PIK3CG (human) (UniProt P48736)) for CCn1nc(C)cc1C(=O)NC1=Nc2ccccc2C2=NCCN12 6.30 to 7.00

Form: Entry = Nc1ccc(C(=O)NC2=Nc3ccccc3C3=NCCN23)cn1 | System = PIK3CG (human) (UniProt P48736) | pIC50 = ____ ≥ 7.00

Give recorded pIC50 with PIK3CG (human) (UniProt P48736) for the following compound: O=C(NC1=Nc2ccccc2C2=NCCN12)c1cccnc1 ≥ 7.00

Request: pIC50, test system PIK3CG (human) (UniProt P48736), entry CC(=O)NC1CCN(c2ccc3c(c2)N=C(/C=C(\O)c2cccnc2)N2CCN=C32)C1 (stereo unspecified) ≥ 7.00

Form entry - test system: PIK3CG (human) (UniProt P48736); read-out: pIC50; compound: COc1cc2c(cc1OC)C1=NCCN1C(/C=C(\O)c1sc(C)nc1C)=N2 ≥ 7.00

Which pIC50 is reported with PIK3CG (human) (UniProt P48736) for this entry: O/C(=C\C1=Nc2c(Br)cccc2C2=NCCN12)c1cccnc1 ? 6.30 to 7.00
